Biological target: UniProtKB G1SFD9
Sequence (G1SFD9 1-524): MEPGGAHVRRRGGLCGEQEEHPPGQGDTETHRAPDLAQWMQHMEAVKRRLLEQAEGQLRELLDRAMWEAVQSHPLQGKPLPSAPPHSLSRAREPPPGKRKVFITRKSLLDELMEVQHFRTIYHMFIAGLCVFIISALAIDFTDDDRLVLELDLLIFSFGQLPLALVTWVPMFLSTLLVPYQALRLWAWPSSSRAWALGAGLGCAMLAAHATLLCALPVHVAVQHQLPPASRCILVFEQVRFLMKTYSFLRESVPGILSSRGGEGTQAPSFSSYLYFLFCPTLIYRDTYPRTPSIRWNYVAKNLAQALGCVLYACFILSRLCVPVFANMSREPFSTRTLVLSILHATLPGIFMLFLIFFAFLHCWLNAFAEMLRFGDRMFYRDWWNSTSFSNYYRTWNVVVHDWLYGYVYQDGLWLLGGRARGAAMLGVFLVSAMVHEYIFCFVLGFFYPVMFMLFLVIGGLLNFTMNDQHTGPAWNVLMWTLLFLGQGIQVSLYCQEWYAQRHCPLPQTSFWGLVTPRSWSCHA
Define the label as yes (1) when IC50 is strictly less than 80 nM and as no (0) in all remaining cases.

These solved cases illustrate the format of a correct answer.
In [3]: df
Out[3]:
                                   compound  class_assignment
0  COc1ccc2c(c1)CC(CNC(=O)Nc1c(C(C)C)cccc1C(C)C)CC2 (stereo not drawn)            no (0)
1  Cc1cccc(C)c1NC(=O)NC1CC(C)(C)c2ccccc2C1(C)C (stereo not drawn)            no (0)
2  CC(C)c1cccc(C(C)C)c1NC(=O)NC1COc2ccccc2C1 (stereo not drawn)            no (0)
3  CC(C)c1cccc(C(C)C)c1NC(=O)NCC1c2ccccc2-c2ccccc21           yes (1)

For CC(C)c1cccc(C(C)C)c1NC(=O)NC1CCOc2ccccc2C1 (stereo not drawn) , is the recorded IC50 below the cut-off of 80 nM?
yes (1)

For CC(C)c1cccc(C(C)C)c1NC(=O)NC1CC(C)(C)c2ccccc2C1(C)C (stereo not drawn) , is the recorded IC50 below the cut-off of 80 nM?
no (0)
